B1: glmS ribozyme (parent)
chain: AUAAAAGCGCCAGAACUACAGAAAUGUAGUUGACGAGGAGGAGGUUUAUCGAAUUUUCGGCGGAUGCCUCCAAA

Variants of: B1
Method summary: self-cleavage kobs at 160 uM GlcN6P; higher = faster cleavage; RNA array
Test parameters: with glucosamine-6-phosphate
This sample holds only a part of the variants without activity.
Observed property: self-cleavage kobs at 160 uM GlcN6P

# example entries with known answers
       mutation_code  value_observed
0      G7U G60C G66U     < 1e-05 s⁻¹
1  G7C C8U A15G G35A     < 1e-05 s⁻¹
2     A42U G44A U65G     < 1e-05 s⁻¹
3          U46C U56A    0.000117 s⁻¹
4          U30A A42U     < 1e-05 s⁻¹
5     A15C G32C G38U     < 1e-05 s⁻¹

Q: Given G44C A52G , respond with its self-cleavage kobs at 160 uM GlcN6P.
Result: < 1e-05 s⁻¹

Q: Supply reported self-cleavage kobs at 160 uM GlcN6P belonging to this variant: A14G U56G
Result: 0.0087 s⁻¹

Q: Supply reported self-cleavage kobs at 160 uM GlcN6P belonging to this variant: G40U G60C
Result: < 1e-05 s⁻¹

Q: Please report self-cleavage kobs at 160 uM GlcN6P for the following variant: C61G G63A
Result: < 1e-05 s⁻¹

Q: Return the recorded self-cleavage kobs at 160 uM GlcN6P value; entry: A14U U49G A53U U69G
Result: 8.99e-05 s⁻¹

Q: Note self-cleavage kobs at 160 uM GlcN6P for the variant shown: G13U A53G
Result: 8.17e-05 s⁻¹

Q: Please report self-cleavage kobs at 160 uM GlcN6P for the following variant: C8A U30A G37U C58A
Result: < 1e-05 s⁻¹

Reference source for all entries: the supplement of paper PMC7125110
